# Tested on: rats having artificially promoted high blood pressure (according to Goldblatt)
# test-details: blood pressure reduction in rats having artificially promoted high blood pressure (according to Goldblatt), plethysmographic at base of tail
# Assay type: in vivo
# stated-conditions: Rattus norvegicus, sc, 10 mg/kg s.c., single dose, at the time given in the same line, read-out: Maximum blood pressure reduction, diastolic (percent of initial value)
Structures can show the parent of a compound that is named as a salt.
Think of -20% as a floor: if change in vivo at 10 mg/kg stands on it or above, it is Y; beneath it, N.

Answered cases to consult:
COc1ccccc1OCCNCc1ccccn1 [Compound D, HCl]	N
Clc1ccccc1OCCCCNCCc1ccncc1 [Compound K, dioxalate monohydrate]	Y
COc1ccccc1OCCNCc1ccncc1 [Compound E, HCl]	Y

Is change in vivo at 10 mg/kg for COc1ccccc1OCCNCCc1ccncc1 [Compound A, HCl] at or above -20%? N

Is change in vivo at 10 mg/kg for Cc1cccnc1CNCCOc1ccccc1Cl [Compound H, hydrate] at or above -20%? Y

Is change in vivo at 10 mg/kg for N#Cc1ccccc1OCCNCCc1ccncc1 [Compound L, dioxalate hydrate] at or above -20%? Y

Is change in vivo at 10 mg/kg for COc1ccccc1OCCNCc1ncccc1O.Cl.Cl [Compound M, dihydrochloride] at or above -20%? Y
